The measured values listed here are drawn from PubChem BioAssay AID1963825.

molecules and their reported viability, T/C
assay: Anticancer human tumor 997537-175-T-J1-PDC patient-derived colon adenocarcinoma cell line growth inhibition [POLQ]; details: 997537-175-T-J1-PDC complex spheroid viability, combination with POLQ inhibitors; second compound 1 µM; first compound 0.316 µM; stronger effect = lower value
Output spec: scalar in %, unitless text.

INSERT INTO measurements (molecule, data_value) VALUES
  ('COc1cc(C2c3cc4c(cc3C(OC3OC5COC(C)OC5C(O)C3O)C3COC(=O)C23)OCO4)cc(OC)c1O (stereo not given) + Nc1ccc(C#CCN(C(=O)Cc2ncc(C(F)(F)F)cc2C(F)(F)F)c2ccc(F)cc2)nn1', 97.1),
  ('O=C(Nc1ccc(O)c(NS(=O)(=O)c2ccc(F)cc2)c1)c1ccc(-c2ccccc2)cc1 + Nc1ccc(C#CCN(C(=O)Cc2ncc(C(F)(F)F)cc2C(F)(F)F)c2ccc(F)cc2)nn1', 95.2),
  ('CCc1cc2c(N3CCc4c(cc(Cn5ccnc5)cc4-c4cn(C)nc4C(F)(F)F)C3=O)ccnc2c(OC)n1 + COC1C(OC(N)=O)C(O)C(Oc2ccc3c(O)c(NC(=O)c4ccc(O)c(CC=C(C)C)c4)c(=O)oc3c2C)OC1(C)C', 71.3),
  ('C=CCn1c(=O)c2cnc(Nc3ccc(N4CCN(C)CC4)cc3)nc2n1-c1cccc(C(C)(C)O)n1 + Cc1cccc(N(C)C(=O)C2C(O)CCN2c2nc(C)cc(C(F)(F)F)c2C#N)c1', 113);

Now take the following molecule into account.
Q: Given the entry C=CCn1c(=O)c2cnc(Nc3ccc(N4CCN(C)CC4)cc3)nc2n1-c1cccc(C(C)(C)O)n1 + COC1C(OC(N)=O)C(O)C(Oc2ccc3c(O)c(NC(=O)c4ccc(O)c(CC=C(C)C)c4)c(=O)oc3c2C)OC1(C)C , report its measured viability, T/C.
Result: 102

* * *

assay: Anticancer human tumor 997537-175-T-J1-PDC cell line growth inhibition [POLQ]; conditions: 997537-175-T-J1-PDC complex spheroid viability, combination with POLQ inhibitors; second compound 1 µM; first compound 0.01 µM; stronger effect = lower value;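 also: luminescence signal used as a surrogate for viable cells; spheroids exposed to drugs for seven days before readout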
QUANTITY_KIND: viability, T/C (%)
Output spec: scalar in %, unitless text.

See these solved cases before continuing.
INSERT INTO assay_data (compound, quantity_kind, data_value) VALUES
  ('CCc1c2c(nc3ccc(O)cc13)-c1cc3c(c(=O)n1C2)COC(=O)[C@]3(O)CC + Cc1cccc(N(C)C(=O)C2C(O)CCN2c2nc(C)cc(C(F)(F)F)c2C#N)c1', 'viability, T/C', 59.5),
  ('CC[C@@]1(O)C(=O)OCc2c1cc1n(c2=O)Cc2cc3c(CN(C)C)c(O)ccc3nc2-1 + Nc1ccc(C#CCN(C(=O)Cc2ncc(C(F)(F)F)cc2C(F)(F)F)c2ccc(F)cc2)nn1', 'viability, T/C', 101);

Q: Given the entry Cn1ncnc1[C@H]1c2n[nH]c(=O)c3cc(F)cc(c23)N[C@@H]1c1ccc(F)cc1 + COC1C(OC(N)=O)C(O)C(Oc2ccc3c(O)c(NC(=O)c4ccc(O)c(CC=C(C)C)c4)c(=O)oc3c2C)OC1(C)C , report its measured viability, T/C.
Result: 101

* * *

molecules and their reported IC50
assay: Anticancer human tumor 997537-175-T-J1-PDC cell line growth inhibition [POLQ]; conditions: 997537-175-T-J1-PDC complex spheroid viability, combination with POLQ inhibitors; curve of first compound; second compound 1 µM;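 also: luminescence signal used as a surrogate for viable cells; spheroids exposed to drugs for seven days before readout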

INSERT INTO results (molecule, data_value) VALUES
  ('O=c1[nH]cc(F)c(=O)[nH]1 + COC1C(OC(N)=O)C(O)C(Oc2ccc3c(O)c(NC(=O)c4ccc(O)c(CC=C(C)C)c4)c(=O)oc3c2C)OC1(C)C', '> 10 µM'),
  ('CC1COCCN1c1cc(-c2ccnn2C)c2ccnc(-c3ccn[nH]3)c2n1 (stereo not drawn) + Nc1ccc(C#CCN(C(=O)Cc2ncc(C(F)(F)F)cc2C(F)(F)F)c2ccc(F)cc2)nn1', '> 10 µM');

Now take the following molecule into account.
Q: Given the entry CCc1c2c(nc3ccc(O)cc13)-c1cc3c(c(=O)n1C2)COC(=O)[C@]3(O)CC + Cc1cccc(N(C)C(=O)C2C(O)CCN2c2nc(C)cc(C(F)(F)F)c2C#N)c1 , report its measured IC50.
Result: 0.0153 µM

* * *

experiment: Anticancer human tumor 997537-175-T-J1-PDC cell line growth inhibition [POLQ]; settings: 997537-175-T-J1-PDC complex spheroid viability, combination with POLQ inhibitors; second compound 10 µM; first compound 0.316 µM; active means viability on the fitted dose curve at most 10% of control; inactive means the rest;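 also: luminescence signal used as a surrogate for viable cells; spheroids exposed to drugs for seven days before readout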
// classify into true = active, false = inactive

Illustrative cases are given below, each with its answer.
INSERT INTO measurements (compound, cat) VALUES
  ('CCc1cc2c(N3CCc4c(cc(Cn5ccnc5)cc4-c4cn(C)nc4C(F)(F)F)C3=O)cc(C)nc2c(OC)n1 + Nc1ccc(C#CCN(C(=O)Cc2ncc(C(F)(F)F)cc2C(F)(F)F)c2ccc(F)cc2)nn1', 'false'),
  ('CCc1c2c(nc3ccc(O)cc13)-c1cc3c(c(=O)n1C2)COC(=O)[C@]3(O)CC + COC1C(OC(N)=O)C(O)C(Oc2ccc3c(O)c(NC(=O)c4ccc(O)c(CC=C(C)C)c4)c(=O)oc3c2C)OC1(C)C', 'true'),
  ('O=C(c1cc(Cc2n[nH]c(=O)c3ccccc23)ccc1F)N1CCN(C(=O)C2CC2)CC1 + Nc1ccc(C#CCN(C(=O)Cc2ncc(C(F)(F)F)cc2C(F)(F)F)c2ccc(F)cc2)nn1', 'false'),
  ('CC1COCCN1c1cc(C2(S(C)(=N)=O)CC2)nc(-c2ccnc3[nH]ccc23)n1 (stereo unspecified) + Cc1cccc(N(C)C(=O)C2C(O)CCN2c2nc(C)cc(C(F)(F)F)c2C#N)c1', 'false'),
  ('CCc1cc2c(N3CCc4c(cc(Cn5ccnc5)cc4-c4cn(C)nc4C(F)(F)F)C3=O)ccnc2c(OC)n1 + Cc1cccc(N(C)C(=O)C2C(O)CCN2c2nc(C)cc(C(F)(F)F)c2C#N)c1', 'false');

Q: Please state the recorded outcome for this compound: CC(C)n1c(=O)n(C)c2cnc3cc(F)c(-c4ccc(OCCCN5CCCCC5)nc4)cc3c21 + Nc1ccc(C#CCN(C(=O)Cc2ncc(C(F)(F)F)cc2C(F)(F)F)c2ccc(F)cc2)nn1
Result: false

Q: Same question for COc1cc2cc(C(=O)CCC(=O)O)sc2cc1OC + Cc1cccc(N(C)C(=O)C2C(O)CCN2c2nc(C)cc(C(F)(F)F)c2C#N)c1 please.
Result: false

Q: Same question for CCc1cc2c(N3CCc4c(cc(Cn5ccnc5)cc4-c4cn(C)nc4C(F)(F)F)C3=O)ccnc2c(OC)n1 + Nc1ccc(C#CCN(C(=O)Cc2ncc(C(F)(F)F)cc2C(F)(F)F)c2ccc(F)cc2)nn1 please.
Result: false

Q: Same question for COc1cccc(OCCCN)c1-c1cc(Nc2cnc(C#N)cn2)n[nH]1 + Nc1ccc(C#CCN(C(=O)Cc2ncc(C(F)(F)F)cc2C(F)(F)F)c2ccc(F)cc2)nn1 please.
Result: false

Q: Same question for CC1COCCN1c1cc(C2(O)CC3CCC(C2)O3)c2cnn(-c3ccn[nH]3)c2n1 (stereo unspecified) + Cc1cccc(N(C)C(=O)C2C(O)CCN2c2nc(C)cc(C(F)(F)F)c2C#N)c1 please.
Result: false

Q: Same question for CNCc1ccc(-c2[nH]c3cc(F)cc4c3c2CCNC4=O)cc1 + Cc1cccc(N(C)C(=O)C2C(O)CCN2c2nc(C)cc(C(F)(F)F)c2C#N)c1 please.
Result: false

* * *

compounds and their reported viability, T/C
test: Anticancer human tumor 997537-175-T-J1-PDC cell line growth inhibition [POLQ]; conditions: 997537-175-T-J1-PDC complex spheroid viability, combination with POLQ inhibitors; second compound 1 µM; first compound 0.316 µM; stronger effect = lower value;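 also: luminescence signal used as a surrogate for viable cells; spheroids exposed to drugs for seven days before readout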
Output spec: scalar in %, unitless text.

See these solved cases before continuing.
INSERT INTO measurements (compound, quantity_kind, data_value) VALUES
  ('CCc1c2c(nc3ccc(O)cc13)-c1cc3c(c(=O)n1C2)COC(=O)[C@]3(O)CC + Cc1cccc(N(C)C(=O)C2C(O)CCN2c2nc(C)cc(C(F)(F)F)c2C#N)c1', 'viability, T/C', 5.49),
  ('Nc1ccn(C2OC(CO)C(O)C2(F)F)c(=O)n1 (stereo not given) + COC1C(OC(N)=O)C(O)C(Oc2ccc3c(O)c(NC(=O)c4ccc(O)c(CC=C(C)C)c4)c(=O)oc3c2C)OC1(C)C', 'viability, T/C', 100),
  ('C=CC(=O)N1CCN(c2nc(=O)n(-c3c(C)ccnc3C(C)C)c3nc(-c4c(O)cccc4F)c(F)cc23)C(C)C1 (stereo not given) + Cc1cccc(N(C)C(=O)C2C(O)CCN2c2nc(C)cc(C(F)(F)F)c2C#N)c1', 'viability, T/C', 111),
  ('O=c1[nH]cc(F)c(=O)[nH]1 + COC1C(OC(N)=O)C(O)C(Oc2ccc3c(O)c(NC(=O)c4ccc(O)c(CC=C(C)C)c4)c(=O)oc3c2C)OC1(C)C', 'viability, T/C', 110);

Now take the following compound into account.
Q: Given the entry CCc1cc2c(N3CCc4c(cc(Cn5ccnc5)cc4-c4cn(C)nc4C(F)(F)F)C3=O)ccnc2c(OC)n1 + Nc1ccc(C#CCN(C(=O)Cc2ncc(C(F)(F)F)cc2C(F)(F)F)c2ccc(F)cc2)nn1 , report its measured viability, T/C.
Result: 97.3
